test: melting temperature; melt of duplexes; details: sodium 0.0675 M; strand 1 µM
Observation Type: Tm (°C)
Please respond with the number in °C and leave the unit unwritten.

query: Sample CGACGTGCCATATGTGCTG+CAGCACATTAAGCACGTCG ((((((((...((((((((+))))))))...)))))))) — what was its Tm?
result: 50.1

query: Bench note: what Tm did CGACGTGCTTTATGTGCTG+CAGCACATCATGCACGTCG ((((((((.(.((((((((+)))))))).).)))))))) show?
result: 49.2

query: Report Tm for CGACGTGCAATATGTGCTG+CAGCACATGGAGCACGTCG ((((((((...((((((((+))))))))...)))))))) please.
result: 51

* * *

assay: melting temperature; melt of duplexes; conditions: sodium 0.0675 M; strand 1 µM
Observation Type: Tm (°C)
Numeric answer only, unit °C assumed.

query: What does the data say about its Tm? Entry: CGACGTGCCAAATGTGCTG+CAGCACATGCCGCACGTCG ((((((((...((((((((+))))))))...))))))))
result: 50.6

query: Which measured Tm value corresponds to CGACGTGCTAAATGTGCTG+CAGCACATAATGCACGTCG ((((((((...((((((((+))))))))...)))))))) ?
result: 50.7

query: Quick one: Tm of CGACGTGCTGCATGTGCTG+CAGCACATCCCGCACGTCG ((((((((.(.((((((((+)))))))).).)))))))) ?
result: 49.9

query: Can you look up the measured Tm of CGACGTGCAGTATGTGCTG+CAGCACATTTGGCACGTCG ((((((((...((((((((+))))))))...)))))))) for me?
result: 49.2

query: What measured Tm goes with CGACGTGCAGGATGTGCTG+CAGCACATTTCGCACGTCG ((((((((...((((((((+))))))))...)))))))) ?
result: 51.1

query: Give the measured Tm of CGACGTGCACTATGTGCTG+CAGCACATACTGCACGTCG (((((((((.(((((((((+))))))))).))))))))) .
result: 48.8

query: Any idea what Tm was measured for CGACGTGCTTTATGTGCTG+CAGCACATGCAGCACGTCG (((((((((..((((((((+))))))))..))))))))) ?
result: 50.9

query: Given the entry CGACGTGCACCATGTGCTG+CAGCACATGCCGCACGTCG ((((((((..(((((((((+)))))))))..)))))))) , report its measured Tm.
result: 48.6

query: What value of measured Tm is listed for CGACGTGCTTTATGTGCTG+CAGCACATTTGGCACGTCG ((((((((...((((((((+))))))))...)))))))) ?
result: 50.1

query: Returns the measured Tm for the input substance. Input: CGACGTGCCTAATGTGCTG+CAGCACATTTAGCACGTCG ((((((((..(((((((((+)))))))))..))))))))
result: 51.5

query: I'd like to know its Tm. The substance in question is CGACGTGCTATATGTGCTG+CAGCACATCGAGCACGTCG (((((((((..((((((((+))))))))..)))))))))
result: 51.5

* * *

Please respond with reported Tm for every item in the list.
assay: melting temperature; melt of duplexes; conditions: sodium 0.0675 M; strand 1 µM
Write the number in °C without appending the unit.

query: I would be grateful if you could share the reported Tm for CGACGTGCCACATGTGCTG+CAGCACATAGAGCACGTCG ((((((((...((((((((+))))))))...)))))))) .
result: 49.4

query: Sample CGACGTGCGCTATGTGCTG+CAGCACATTCTGCACGTCG ((((((((...((((((((+))))))))...)))))))) — what was its Tm?
result: 48.6

query: Bench note: what Tm did CGACGTGCTCAATGTGCTG+CAGCACATACTGCACGTCG ((((((((...((((((((+))))))))...)))))))) show?
result: 48.7

query: Quick one: Tm of CGACGTGCTTGATGTGCTG+CAGCACATTCGGCACGTCG ((((((((...((((((((+))))))))...)))))))) ?
result: 50.1

query: Would you kindly share the measured Tm for CGACGTGCATAATGTGCTG+CAGCACATCAGGCACGTCG ((((((((.(.((((((((+)))))))).).)))))))) ?
result: 50.2
